molecular target: T1, L1-CAM-Fc (UniProt P32004 20-1120, limits assumed); experiment: SPR (Biacore T100), L1-CAM-Fc immobilised on CM5 chip
T1 construct: also called antigen L1-CAM-Fc; not shown: Fc part
T1 sequence (P32004 20-1120 limits assumed): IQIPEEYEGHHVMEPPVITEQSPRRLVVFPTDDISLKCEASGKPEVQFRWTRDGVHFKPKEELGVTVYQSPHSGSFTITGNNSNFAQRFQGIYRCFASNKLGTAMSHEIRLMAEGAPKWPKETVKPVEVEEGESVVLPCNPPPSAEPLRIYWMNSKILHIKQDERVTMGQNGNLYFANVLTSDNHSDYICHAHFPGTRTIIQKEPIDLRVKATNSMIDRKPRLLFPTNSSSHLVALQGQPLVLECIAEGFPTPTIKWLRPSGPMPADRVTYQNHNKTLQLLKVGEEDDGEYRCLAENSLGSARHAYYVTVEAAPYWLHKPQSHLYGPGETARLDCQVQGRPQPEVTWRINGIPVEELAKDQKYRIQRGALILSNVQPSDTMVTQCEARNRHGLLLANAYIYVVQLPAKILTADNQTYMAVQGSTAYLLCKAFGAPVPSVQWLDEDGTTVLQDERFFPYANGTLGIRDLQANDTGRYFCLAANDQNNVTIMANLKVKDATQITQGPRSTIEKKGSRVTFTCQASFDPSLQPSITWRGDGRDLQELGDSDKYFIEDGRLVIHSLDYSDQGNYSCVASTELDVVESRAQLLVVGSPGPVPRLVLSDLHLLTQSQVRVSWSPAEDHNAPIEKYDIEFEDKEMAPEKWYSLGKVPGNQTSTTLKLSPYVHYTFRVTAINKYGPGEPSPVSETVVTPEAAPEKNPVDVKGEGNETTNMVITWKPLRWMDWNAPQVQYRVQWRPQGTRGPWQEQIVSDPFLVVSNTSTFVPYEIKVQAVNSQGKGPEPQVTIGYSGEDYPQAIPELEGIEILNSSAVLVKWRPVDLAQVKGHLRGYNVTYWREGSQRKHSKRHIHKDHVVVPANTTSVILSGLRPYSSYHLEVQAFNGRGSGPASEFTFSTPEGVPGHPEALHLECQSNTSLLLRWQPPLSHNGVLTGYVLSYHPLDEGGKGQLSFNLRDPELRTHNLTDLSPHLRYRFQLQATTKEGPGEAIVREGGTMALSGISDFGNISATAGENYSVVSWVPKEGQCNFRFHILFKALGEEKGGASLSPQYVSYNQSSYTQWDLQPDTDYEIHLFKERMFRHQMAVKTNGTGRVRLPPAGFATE
pKd reference
Please note pKd is a logarithmic value: minus log10 of concentration in mol/L. Answer with that number alone.

binder	value.type	value.measured
huE71-H1L2 (antibody, human IgG1, kappa, V domains shown) VH: QVQLVQPGDELVKPGASVKLSCKASGYTFTSYWMQWVKQRPGQGLEWIGEINPSNGRTNYNEMFKSKAVLSVDKSVSTAYMQLSSLTAEDTAVYYCALYDGYYAMDYWGQGTLVTVSS VL: DIVMTQSPDSLAVSLGERVTMNCKSSQSLLYSSNQKNYLAWYQQKPGQPPKLLIYWASTRESGVPDRFSGSGSGTDFTLTISSLQAEDVALYYCQQYHSYPFTFGQGTKLEIKR	pKd	9.29
E72-H2L1 (antibody, human IgG1, kappa, V domains shown, also called huE72 H2/L1) VH: QVQLVQPGAEVKKPGASVKLSCKASGYTFTGYWMHWVRQAPGQGLEWIGEINPSNGRTNYNERFKSRATLTVDKSISTAYMELSRLRSDDTAVYFCARDYYGTSYNFDYWGQGTLLTVSS VL: DIQMTQSSSSFSVSVGDRVTITCKANEDINNRLAWYQQKPGKSPRLLISGATNLVTGVPSRFSGSGSGTDYTLTISSLQAEDFATYYCQQYWSTPFTFGQGTELEIKR	pKd	9.45

Proceeding to the next binder to report its pKd.
Name the recorded pKd for huE72-IgG1 (huE72 H1/L2) (antibody, V domains shown, Human IgG1; also called humanized E72 IgG1) VH: QVQLVQPGAEVVKPGASVKLSCKASGYTFTGYWMHWVKQAPGQGLEWIGEINPSNGRTNYNERFKSKATLTVDKSITTAFMELSRLRSDDTAVYFCARDYYGTSYNFDYWGQGTLLTVSS VL: DIQMTQSPSSLSVSVGDRVTITCKANEDINNRLAWYQQKPGKAPKLLISGATNLVTGVPSRFSGSGSGTDYTLTISSLQPEDFATYYCQQYWSTPFTFGQGTELEIKR . 9.60
